FYI, the data here is from patent US20130324545A1.

- Test system: human endometrial epithelial (HIEEC) cells
- test: PGF2α and PGE2 production and enzyme expression in endometrial epithelial HIEEC cells stimulated with IL-1β (ELISA, Western blot)
- Format: cell-based
- run.parameters: Homo sapiens; HIEEC cells treated with IL-1β, ELISA; range in brackets; read-out: IC50 PGF2α production
recorded.endpoint: IC50
Just so you know, I need the unit written after the number.

Record IC50 for all entries; do not skip any.
1. COc1ccc2cc([C@H](C)C(=O)O)ccc2c1
2. CS(=O)(=O)c1ccc(C2=C(c3ccccc3)C(=O)OC2)cc1

Return:
["4.62 nM", "201 nM"]
